assay: Photochromic response of test squares on an optical bench (ΔOD/Min, ΔOD at saturation, bleach rate); type: physicochemical; conditions: first five seconds of UV exposure, expressed per minute; 75° F.; 1.5×10^-3 molal in polymer
Listed here: items and their measured ΔOD/MIN sensitivity.

Please review the entries below; each comes with its answer.
Req: Using the record for COc1cc2c3c(c4c(c2cc1OC)-c1ccccc1C4C)OC(c1ccccc1)(c1ccccc1)C=C3 (centres unmarked) , state its measured ΔOD/MIN sensitivity.
Resp: 0.43 ΔOD/MIN

Req: Using the record for COc1cc2c3c(c4c(c2cc1OC)-c1ccccc1C4O)OC(c1ccccc1)(c1ccccc1)C=C3 (centres unmarked) , state its measured ΔOD/MIN sensitivity.
Resp: 0.28 ΔOD/MIN

Further cases:
Req: Using the record for COc1ccc2c3c(c4c(c2c1)C=CC(c1ccccc1)(c1ccccc1)O4)Cc1ccccc1-3 , state its measured ΔOD/MIN sensitivity.
Resp: 0.52 ΔOD/MIN

Req: Using the record for COc1cc2c3c(c4c(c2cc1OC)-c1ccccc1C4(C)C)OC(c1ccccc1)(c1ccccc1)C=C3 , state its measured ΔOD/MIN sensitivity.
Resp: 0.39 ΔOD/MIN

Req: Using the record for COc1cc2c3c(c4c(c2cc1OC)-c1ccccc1C4)OC(c1ccccc1)(c1ccccc1)C=C3 , state its measured ΔOD/MIN sensitivity.
Resp: 0.48 ΔOD/MIN

Req: Using the record for COc1cc2c3c(c4c(c2cc1OC)-c1ccccc1C4(C)O)OC(c1ccccc1)(c1ccccc1)C=C3 (centres unmarked) , state its measured ΔOD/MIN sensitivity.
Resp: 0.41 ΔOD/MIN

Req: Using the record for CCCCC1(O)c2ccccc2-c2c1c1c(c3cc(OC)c(OC)cc23)C=CC(c2ccccc2)(c2ccccc2)O1 (centres unmarked) , state its measured ΔOD/MIN sensitivity.
Resp: 0.41 ΔOD/MIN

Req: Using the record for COc1ccc(C2(c3ccccc3F)C=Cc3c(c4c(c5cc(OC)c(OC)cc35)-c3ccccc3C4)O2)cc1 (centres unmarked) , state its measured ΔOD/MIN sensitivity.
Resp: 0.48 ΔOD/MIN

---

test: Lambda max of photochromic test squares by UV-Visible spectrophotometer; type: physicochemical; design: unit not given here; conditions: photochromic compound in polymer test square; ultraviolet wavelength closest to the visible spectrum; Varian Cary 3
observed-property: (λ) max (UV)
Output: the number by itself.

Please review the entries below; each comes with its answer.
Req: Using the record for COc1ccc2c3c(c4c(c2c1)C=CC(c1ccccc1)(c1ccccc1)O4)Cc1ccccc1-3 , state its measured (λ) max (UV).
Resp: 366

Req: Using the record for COc1cc2c3c(c4c(c2cc1OC)-c1ccccc1C4O)OC(c1ccccc1)(c1ccccc1)C=C3 (centres unmarked) , state its measured (λ) max (UV).
Resp: 359

Req: Using the record for COc1cc2c3c(c4c(c2cc1OC)-c1ccccc1C4)OC(c1ccccc1)(c1ccccc1)C=C3 , state its measured (λ) max (UV).
Resp: 387

Req: Using the record for COc1ccc(C2(c3ccccc3F)C=Cc3c(c4c(c5cc(OC)c(OC)cc35)-c3ccccc3C4)O2)cc1 (centres unmarked) , state its measured (λ) max (UV).
Resp: 385

Req: Using the record for COc1cc2c3c(c4c(c2cc1OC)-c1ccccc1C4C)OC(c1ccccc1)(c1ccccc1)C=C3 (centres unmarked) , state its measured (λ) max (UV).
Resp: 356

Req: Using the record for CCCCC1(O)c2ccccc2-c2c1c1c(c3cc(OC)c(OC)cc23)C=CC(c2ccccc2)(c2ccccc2)O1 (centres unmarked) , state its measured (λ) max (UV).
Resp: 356

Req: Using the record for COc1cc2c3c(c4c(c2cc1OC)-c1ccccc1C4(C)C)OC(c1ccccc1)(c1ccccc1)C=C3 , state its measured (λ) max (UV).
Resp: 358

The record that follows has no (λ) max (UV) shown yet.
Req: Using the record for COc1cc2c3c(c4c(c2cc1OC)-c1ccccc1C4(C)O)OC(c1ccccc1)(c1ccccc1)C=C3 (centres unmarked) , state its measured (λ) max (UV).
Resp: 361
